Note that class boundaries on log10 biodegradation half-life (days) are lowest: < 0.8; middle: ≥ 0.8 and < 2; highest: ≥ 2

For the record `CCCCCCC(C)C` , report the class its log10 biodegradation half-life (days) corresponds to.
lowest

Note: place this compound into its band. Item: `CCCCCCCCCCCCCC`
middle

Class for `CCCCCCCCCCCCCCCCCCC` ?
middle

Classify this compound: `c1ccc2cc3ccccc3cc2c1`
highest

Which bin should I file `CCc1ccc(C)cc1` under?
lowest

Category of CC(C)CC(C)C(C)C (stereo not given) :
middle

For the record `c1cc2ccc3ccc4ccc5ccc6ccc1c1c2c3c4c5c61` , report the class its log10 biodegradation half-life (days) corresponds to.
highest

Please report the category associated with `CCCC(C)(C)CC` , nothing else.
lowest

For `CCC(C)(C)CC` , which log10 biodegradation half-life (days) bin applies?
middle

Given `Cc1cccc(C)c1C` , name the class its log10 biodegradation half-life (days) places it in.
lowest

---
Any idea which band `c1ccc2c(c1)c1cccc3ccc4cccc2c4c31` is in?
highest

Form field 'band' for `C=CCCCCCCCCCCC=C`
middle

Band of `CCCCCCCCCCCCCCCCCCCCCCCCCCCC` ?
highest

Pick a category. Item: `CCCCC(C)(C)C`
lowest

###

Binary call on melting point with cut-off 100 °C: strictly below means yes, and equality or higher means no.

Worked set:
Lab log: compare recorded melting point with 100 °C; is it strictly lower for `O=C(C=Cc1ccccc1)OCC=Cc1ccccc1` ?
yes

Just wondering, is melting point of `CC(=O)NC12CC3CC(CC(C3)C1)C2` below 100 °C?
no

Input `CC[N+](CC)(CCOc1ccc(C(C)(C)CC(C)(C)C)cc1)Cc1ccccc1.[Cl-]` ; condition: melting point strictly below 100 °C. Does it hold?
no

***
Quick check: melting point of `CC(=O)NC(=O)COC(=O)c1ccccc1` under 100 °C?
no

Lab note: melting point threshold 100 °C. Does this compound come in strictly under it? `FC(F)(F)C(Cl)(Cl)C(Cl)(Cl)C(F)(F)F`
yes

Would you kindly verify if melting point of `O=CCCl` is strictly less than 100 °C?
yes

Hello, is melting point of the following compound strictly smaller than 100 °C? `O=C(O)C(F)(F)C(F)(F)C(F)(F)C(F)(F)C(F)(F)C(F)(F)C(F)(F)F`
yes

Please check: melting point for `COC(=O)C1(S(=O)(=O)c2ccccc2)CCCCC1` , strictly under 100 °C or not?
no

Item `Cc1cnc2ccccc2c1C` : melting point beneath 100 °C, strictly?
yes

In plain terms, does `OCCCO` come in under 100 °C for melting point?
yes

Item `CC(C)(C)OC(=O)C1(S(=O)(=O)c2ccc(Cl)cc2)CC1` : melting point beneath 100 °C, strictly?
no

Is 100 °C strictly greater than the compound's reported melting point? compound: `O=C(Cl)c1ccccc1Cl`
yes

Take the compound `Clc1cc2c(cc1Cl)Oc1c(Cl)c(Cl)cc(Cl)c1O2` and say whether its melting point is less than 100 °C.
no

Is the reported melting point for `CC(=O)OCC(=O)[C@H]1CC[C@H]2[C@@H]3CCC4=CC(=O)CC[C@]4(C)[C@H]3CC[C@]12C` strictly below 100 °C?
no

Bench note: check whether `c1ccc2c(c1)CCCO2` shows melting point below 100 °C
no
